The values you see were collected from paper PMC10397247.

interaction score values by entry
Molecular target: T1, P9A-bS
T1 chain: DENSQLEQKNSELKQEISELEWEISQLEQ
Experiment: two-hybrid library CCNG1;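 also: natural log of median RNA to DNA barcode read ratio; higher means stronger binding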

Below are worked cases with known answers.
DKISQLKQKISELKQENSELEWENSQLEQ [P4A-bS] | -2
DKNSQLKQKISELKQKISELKWENSQLEQ [P12A-bS] | -0.676
DKISQLKQKNSELKQKNSELKWKISQLKQ [P2A-bS] | -0.777
DEISQLEQENSELEQENSELEWEISQLEQ [P1A-bS] | -1.08
DENSQLEQEISELEQEISELEWKNSQLKQ [P11A-bS] | -0.134

I would be grateful if you could share the reported interaction score for DENSQLEQKISELKQKNSELKWEISQLEQ [P5A-bS] .
-0.973

And the next one, DEISQLEQKNSELKQEISELEWKNSQLKQ [P7A-bS] ?
-0.768

Next record, please: DKNSQLKQEISELEQENSELEWKISQLKQ [P6A-bS]
-0.77

Next record, please: DKISQLKQENSELEQKISELKWENSQLEQ [P8A-bS]
-0.26

Please give the result for DEISQLEQEISELEQKNSELKWKNSQLKQ [P3A-bS] too.
0.297
